Test system: DLD1
assay text: TCF/Wnt firefly luciferase reporter signal relative to plate median (fraction of plate median); higher = higher Wnt reporter signal
condition info: 5 µM; treatment time 24 h; reporter: 7TFP
Recorded TCF/Wnt firefly luciferase reporter signal values for a group of compounds are listed next.
parameter: TCF/Wnt firefly luciferase reporter signal

| structure smiles | target system | recorded result |
| --- | --- | --- |
| O=c1[nH]c2ccccc2n1CCCN1CCC(n2c(=O)[nH]c3cc(Cl)ccc32)CC1 | DLD1 | 0.997 |
| COc1ccc2c(c1)[C@]13CCCC[C@@H]1[C@H](C2)N(C)CC3 | DLD1 | 1.03 |
| COC1=C[C@@H]2[C@@H]3Cc4ccc(OC)c(O)c4[C@]2(CCN3C)CC1=O | DLD1 | 1.03 |
| CCN1C[C@]2(OC(=O)c3ccccc3NC(C)=O)CC[C@H](OC)[C@@]34[C@@H]2C[C@@H]([C@@H]13)[C@@]1(O)C[C@H](OC)[C@H]2C[C@@H]4[C@]1(O)[C@H]2OC | DLD1 | 0.905 |

----------
System: SW480
assay text: cell viability (CellTiter-Glo) relative to plate median (fraction of plate median); higher = more viable cells
condition info: 10 µM; treatment time 24 h; reporter: 7TFP
parameter: cell viability

| structure smiles | target system | parameter | recorded result |
| --- | --- | --- | --- |
| CCN1CCN(C(=O)Cc2ccc(Nc3ncc(F)c(Nc4ccc(C(=O)Nc5ccccc5Cl)cc4)n3)cc2)CC1 | SW480 | cell viability | 0.927 |
| Cc1ccccc1-n1c(Cn2cnc3c(N)ncnc32)nc2cccc(C)c2c1=O | SW480 | cell viability | 0.947 |
| Cc1ccccc1-n1c(Cn2ncc3c(N)ncnc32)nc2cccc(C)c2c1=O | SW480 | cell viability | 1 |
| COC[C@H]1OC(=O)c2coc3c2[C@@]1(C)C1=C(C3=O)[C@@H]2CCC(=O)[C@@]2(C)C[C@H]1OC(C)=O | SW480 | cell viability | 0.963 |
| CN[C@@H]1C[C@H]2O[C@@](C)([C@@H]1OC)n1c3ccccc3c3c4c(c5c6ccccc6n2c5c31)C(=O)NC4 | SW480 | cell viability | 0.68 |

----------
Tested on: DLD1
assay text: cell viability (CellTiter-Glo) relative to plate median (fraction of plate median); higher = more viable cells
condition info: 5 µM; treatment time 24 h; reporter: 7TFP
Entries and their cell viability
parameter: cell viability

| compound | target system | parameter | recorded result |
| --- | --- | --- | --- |
| COc1ccc2c(c1)[nH]c1c(C)nccc12 | DLD1 | cell viability | 0.98 |
| CC[C@@H](C(=O)[C@@H](C)[C@@H](O)[C@H](C)[C@@H]1O[C@@H]([C@@H](CC)C(=O)O)CC[C@@H]1C)[C@H]1O[C@]2(C=C[C@@H](O)[C@]3(CC[C@@](C)([C@H]4CC[C@](O)(CC)[C@H](C)O4)O3)O2)[C@H](C)C[C@@H]1C | DLD1 | cell viability | 0.948 |
| COc1ccc(Cc2nccc3cc(OC)c(OC)cc23)cc1OC | DLD1 | cell viability | 1.09 |
| CC(C)N(CCC(C(N)=O)(c1ccccc1)c1ccccn1)C(C)C (stereo not given) | DLD1 | cell viability | 0.914 |
| CC[C@@]1(O)C(=O)OCc2c1cc1n(c2=O)Cc2cc3ccccc3nc2-1 | DLD1 | cell viability | 0.91 |
